- target under test: human CCR6 (Homo sapiens)
- Construct: expressed in transfected cells; host or cells: HEK-293
- experiment description: FLIPR assay (inhibition of CCL20-induced calcium signal)
- Format: cell-based
- condition details: HEK-293 cells expressing human CCR6; mean values where determined several times; read-out: FLIPR IC50
metric: IC50 (nM)
Could you give me the number in nM? Just the number is fine.

| compound | target under test | quantitative result |
| --- | --- | --- |
| CC(C)c1ccc(C(O)(c2ccnc(N3CCCCC3)c2)C2(C)CN(C)C2)cc1 (stereo not shown) [Example 275] | human CCR6 (Homo sapiens) | 67.1 |

[in] Look up and report measured IC50 (human CCR6 (Homo sapiens)) for the following compound: CC(C)c1ccc([C@](O)(c2cnnc(OC3CCCC3(C)C)c2)C2(C)CN(C)C2)cc1 (stereo partly shown) [Example 392]
[out] 24.2

[in] Look up and report measured IC50 (human CCR6 (Homo sapiens)) for the following compound: CC(C)c1ccc([C@](O)(c2cncc(CCC3CCN(C(=O)OC(C)(C)C)CC3)c2)C2(C)CN(C)C2)cc1 [Example 414]
[out] 34.7

[in] Look up and report measured IC50 (human CCR6 (Homo sapiens)) for the following compound: CC(C)c1ccc([C@](O)(c2cncc(C3CCN(C(=O)OC(C)(C)C)CC3)c2)C2(C)CN(C)C2)cc1 [Example 312]
[out] 23.9

[in] Look up and report measured IC50 (human CCR6 (Homo sapiens)) for the following compound: CC(C)c1ccc([C@](O)(c2cncc(-c3noc(C4CCN(S(=O)(=O)C5CC5)CC4)n3)c2)C2(C)CN(C)C2)cc1 [Example 190]
[out] 38

[in] Look up and report measured IC50 (human CCR6 (Homo sapiens)) for the following compound: COCC#Cc1cncc(C(O)(c2ccc(C(C)C)cc2)C2(C)CN(C)C2)c1 (stereo not shown) [Example 13]
[out] 43.5

[in] Look up and report measured IC50 (human CCR6 (Homo sapiens)) for the following compound: CN1CC(C)([C@](O)(c2ccc(C3CC3)cc2)c2cncc(N3CCCC3)c2)C1 [Example 310]
[out] 48.6

* * *

- target under test: human CCR6 (Homo sapiens, UniProt P51684)
- Construct: expressed in transfected cells; host or cells: HEK-293
- Sequence (P51684 whole entry): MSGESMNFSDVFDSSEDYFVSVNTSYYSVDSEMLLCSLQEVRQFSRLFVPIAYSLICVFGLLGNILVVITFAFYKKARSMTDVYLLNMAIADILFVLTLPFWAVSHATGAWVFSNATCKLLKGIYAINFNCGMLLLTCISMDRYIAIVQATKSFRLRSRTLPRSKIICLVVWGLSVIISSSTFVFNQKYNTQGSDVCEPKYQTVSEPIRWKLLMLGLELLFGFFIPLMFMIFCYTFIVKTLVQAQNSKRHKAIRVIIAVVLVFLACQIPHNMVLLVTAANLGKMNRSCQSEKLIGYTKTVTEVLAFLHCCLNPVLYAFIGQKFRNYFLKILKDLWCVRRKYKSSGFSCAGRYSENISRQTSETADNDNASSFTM
- experiment description: FLIPR assay (inhibition of CCL20-induced calcium signal)
- Format: cell-based
- condition details: HEK-293 cells expressing human CCR6; mean values where determined several times; read-out: FLIPR IC50
metric: IC50 (nM)
Could you give me the number in nM? Just the number is fine.

Please review the following examples before continuing.
| compound | unit | quantitative result |
| --- | --- | --- |
| CN1CC(C)([C@](O)(c2ccc(C(C)(F)F)cc2)c2cncc(-c3noc(C(C)(C)O)n3)c2)C1 [Example 548] | nM | 742 |
| CC(C)c1ccc([C@](O)(c2cncc(C3CCC(O)CC3)c2)C2(C)CN(C)C2)cc1 (stereo partly shown) [Example 425] | nM | 1730 |
| CC(C)c1ccc([C@](O)(c2cncc(-c3noc([C@@H]4CC(=O)N4)n3)c2)C2(C)CN(C)C2)cc1 [Example 363] | nM | 178 |

[in] Please give the documented IC50 of CC(C)c1ccc([C@](O)(c2cncc(-c3noc(C4CCN(C(=O)CC(F)(F)F)CC4)n3)c2)C2(C)CN(C)C2)cc1 [Example 473]
[out] 77.6
